Please consider the recorded hERG/HT-29 for hERG (Homo sapiens (Human)) in what follows.
I only need the number, thanks.

compound	hERG/HT-29
CC1(C)Oc2ccc(N=[N+]=[N-])cc2C2OCC3(CCN(C(=O)Cn4ccnc4C#N)CC3)CC21 (stereo not shown)	1.20
CC(=O)NCCc1nccn1CCN1CCC2(CC1)COC1c3cc(Cl)ccc3OC(C)(C)C1C2 (stereo not shown)	6.88
Cc1nc(CO)cn1CCN1CCC2(CC1)COC1c3ccc(Cl)cc3OC(C)(C)C1C2 (stereo not shown)	15.7
CC1(C)Oc2ccc(Cl)cc2C2OCC3(CCN(C(=O)Cn4cnc(C(F)(F)F)c4)CC3)CC21 (stereo not shown)	0.36
Cc1nccn1CCN1CCC2(CC1)COC1c3ccc(Cl)cc3OC(C)(C)C1C2 (stereo not shown)	50

Which hERG/HT-29 value is on record for CC1(C)Oc2ccc(Cl)cc2C2OCC3(CCN(CCn4cnc(CO)c4)CC3)CC21 (stereo not shown) ?
26.7

Next entry: Cc1nccn1CC(=O)N1CCC2(CC1)COC1c3ccc(Br)cc3OC(C)(C)C1C2 (stereo not shown)
0.97

Next entry: Cc1nccn1CCN1CCC2(CC1)COC1c3cc(F)ccc3OC(C)(C)C1C2 (stereo not shown) [Example 43]
20

Next entry: CC1(C)Oc2ccc(Cl)cc2C2OCC3(CCN(C(=O)Cn4ccnc4CO)CC3)CC21 (stereo not shown)
5.33

Next entry: CC1(C)Oc2ccc(Cl)cc2C2OCC3(CCN(C(=O)Cn4ccnc4C#N)CC3)CC21 (stereo not shown)
5.27

====

Biological target: hERG (Homo sapiens (Human))
Sequence (Q12809 whole entry): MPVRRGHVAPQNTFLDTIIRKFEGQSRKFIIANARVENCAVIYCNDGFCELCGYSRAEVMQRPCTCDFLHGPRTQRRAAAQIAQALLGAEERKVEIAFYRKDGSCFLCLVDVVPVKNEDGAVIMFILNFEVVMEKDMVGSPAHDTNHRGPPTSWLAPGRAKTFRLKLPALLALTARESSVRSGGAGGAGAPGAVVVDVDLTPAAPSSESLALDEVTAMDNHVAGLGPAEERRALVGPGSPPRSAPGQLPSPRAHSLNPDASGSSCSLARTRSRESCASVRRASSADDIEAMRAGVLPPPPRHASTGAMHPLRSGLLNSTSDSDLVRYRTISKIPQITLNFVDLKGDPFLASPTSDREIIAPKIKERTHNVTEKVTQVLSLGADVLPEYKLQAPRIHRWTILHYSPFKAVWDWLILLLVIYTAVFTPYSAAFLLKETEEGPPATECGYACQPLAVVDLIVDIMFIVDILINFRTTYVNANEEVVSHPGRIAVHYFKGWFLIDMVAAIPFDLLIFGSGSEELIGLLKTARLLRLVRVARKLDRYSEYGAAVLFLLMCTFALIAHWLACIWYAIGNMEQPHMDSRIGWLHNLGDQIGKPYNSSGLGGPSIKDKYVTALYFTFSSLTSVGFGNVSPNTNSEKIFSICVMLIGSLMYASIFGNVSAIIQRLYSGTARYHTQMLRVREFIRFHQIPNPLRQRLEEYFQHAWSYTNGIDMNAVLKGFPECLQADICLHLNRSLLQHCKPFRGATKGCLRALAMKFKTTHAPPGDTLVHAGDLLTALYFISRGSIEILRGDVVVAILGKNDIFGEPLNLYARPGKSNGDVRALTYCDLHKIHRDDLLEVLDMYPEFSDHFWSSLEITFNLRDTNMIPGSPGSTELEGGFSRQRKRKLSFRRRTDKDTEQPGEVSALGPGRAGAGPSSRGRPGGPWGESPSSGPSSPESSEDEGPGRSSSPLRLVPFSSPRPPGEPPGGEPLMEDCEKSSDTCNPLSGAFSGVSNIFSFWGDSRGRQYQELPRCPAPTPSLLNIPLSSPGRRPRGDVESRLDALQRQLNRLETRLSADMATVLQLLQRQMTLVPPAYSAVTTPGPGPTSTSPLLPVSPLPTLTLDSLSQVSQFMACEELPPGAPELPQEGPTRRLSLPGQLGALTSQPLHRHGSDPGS
Assay: Test for evaluating hERG inhibition (QPatch HT, CHO cell strain stably expressing hERG)
Settings: hERG IC50 (Test 2) divided by HT-29 sphere IC50 (Test 1)
quantity: hERG/HT-29

compound	hERG/HT-29
Cc1nccn1CCN1CCC2(CC1)COC1c3cc(Cl)ccc3OC(C)(C)C1C2 (centres unmarked) [Example 46]	>120
Cc1nc[nH]c1CN1CCC2(CC1)COC1c3cc(Cl)ccc3OC(C)(C)C1C2 (centres unmarked) [Example 25]	5.7
Cc1nc(CN2CCC3(CC2)COC2c4cc(Cl)ccc4OC(C)(C)C2C3)c[nH]1 (centres unmarked) [Example 30]	7.46
Cc1nccn1CCN1CCC2(CC1)COC1c3ccc(Cl)cc3OC(C)(C)C1C2 (centres unmarked) [Example 51]	>90
Cc1nc[nH]c1CN1CCC2(CC1)COC1c3ccc(Cl)cc3OC(C)(C)C1C2 (racemic) [Example 18]	30
CC1(C)Oc2cc(Cl)ccc2C2OCC3(CCN(CCn4ccnc4CO)CC3)CC21 (centres unmarked) [Example 54]	>140
Cn1cncc1CN1CCC2(CC1)COC1c3cccc(Cl)c3OC(C)(C)C1C2 (centres unmarked) [Example 34]	>140
Cc1nccn1CCN1CCC2(CC1)COC1c3ccc(Cl)cc3OC(C)(C)C1C2 (centres unmarked) [Example 49]	>140
Cc1nccn1CCN1CCC2(CC1)COC1c3cc(Cl)ccc3OC(C)(C)C1C2 (centres unmarked) [Example 47]	>190
CC1(C)Oc2ccc(Cl)cc2C2OCC3(CCN(CCn4ccnc4)CC3)CC21 (centres unmarked) [Example 40]	>140

Which measured hERG/HT-29 belongs to CC1(C)Oc2ccc(Cl)cc2C2OCC3(CCN(Cc4ncc[nH]4)CC3)CC21 (centres unmarked) [Example 35] , tested on hERG (Homo sapiens (Human))?
16.7

Next entry: CC1(C)Oc2cc(Cl)ccc2C2OCC3(CCN(CCn4ccnc4)CC3)CC21 (centres unmarked) [Example 42]
>140

Next entry: Cc1nc[nH]c1CN1CCC2(CC1)COC1c3cccc(Cl)c3OC(C)(C)C1C2 (centres unmarked) [Example 27]
1.14

Reference for the values: patent US10807993B2
